# Tested on: RXF 393
# assay name: NCI tumour cell line growth inhibition, 48 h
The source made the active and inactive calls. Cut-off read from the data, not from the text of the source: active = GI50 up to about 1.1 µM and inactive = higher.
Measured GI50, listed per entry.

Answered examples (2):
>>> observed_result("COC(=O)CCC(NC(=S)N/N=C/c1ccco1)C(=O)OC (stereo not given)")
"> 100 µM (inactive)"
>>> observed_result("O=c1oc2ccc3ccccc3c2cc1-c1nnc(Nc2ccccc2)s1")
"15.8 µM (inactive)"

Notebook: `O=C(O)c1cc(O)nc(S)n1` , GI50 read as > 100 µM (inactive)

Notebook: `Cc1cc(O)c2c(c1O)C(=O)c1c(O)ccc(O)c1C2=O` , GI50 read as > 100 µM (inactive)

Notebook: Cc1ccc(C2c3c(n(C)c(=O)n(C)c3=O)OC(N(C)C)(N(C)C)C2(F)F)cc1 (stereo not given) , GI50 read as > 100 µM (inactive)

Notebook: `Cc1cc2[nH]c(Cl)c(/C=C3\C(=O)Nc4ccccc43)c2cc1O` , GI50 read as 2.25 µM (inactive)

Notebook: `COc1ccc(/C=C/C(=N/NC(=O)N/N=C(/C=C/c2ccc(OC)cc2)C(C)C)C(C)C)cc1` , GI50 read as > 100 µM (inactive)

Notebook: C=CCc1cc(C(Cc2ccccc2)NC(C)C)cc(OCc2ccccc2)c1OCc1ccccc1 (stereo not given) , GI50 read as 14.4 µM (inactive)

Notebook: `O=C(CSc1nnc(Cc2ccccc2)o1)Nc1ccc([N+](=O)[O-])cc1` , GI50 read as > 100 µM (inactive)

Notebook: `O=S(=O)(c1ccccc1)N1CCN(S(=O)(=O)c2ccccc2)c2ccccc21` , GI50 read as > 100 µM (inactive)

----------
Measured GI50, listed per entry.
# System: OVCAR-5
# assay name: NCI tumour cell line growth inhibition, 48 h
Activity calls are given as the source filed them. No stated cut-off is given here; in the data, active = GI50 up to about 1.1 µM and inactive = higher.

Answered examples (5):
>>> observed_result("O=C1c2ccc(O)cc2OC(c2cc(O)c(O)c(O)c2)C1O (stereo unspecified) [DIHYDROBINETIN]")
"58.2 µM (inactive)"
>>> observed_result("CCC1=CCC23C(=O)C=CC(=O)C2(C1)C(=O)c1cccc(OC)c1C3=O (stereo unspecified)")
"16.2 µM (inactive)"
>>> observed_result("C/C1=C/C[C@@H](/C(C)=C/c2csc(C)n2)OC(=O)C[C@H](O)C(C)(C)C(=O)[C@H](C)[C@@H](O)[C@@H](C)CCC1")
"< 0.0001 µM (active)"
>>> observed_result("NCC1OC(n2cnc3c(N)ncnc32)CC1O (stereo unspecified)")
"> 100 µM (inactive)"
>>> observed_result("O=S(=O)(/N=C1/S/C(=N\\c2ccccc2)N(c2ccccc2)/C1=N/S(=O)(=O)c1ccccc1)c1ccccc1")
"20.8 µM (inactive)"

Notebook: O=C(Nc1ccc(Cl)c(C(F)(F)F)c1)C(=O)C(C(=O)/C=C/c1ccccc1)C1OC(=O)c2ccccc21 (stereo unspecified) , GI50 read as > 100 µM (inactive)

Notebook: `COc1ccc(NCC(=O)Nn2c(C)nc3ccc(S(=O)(=O)Nc4ccc(OC)cc4)cc3c2=O)cc1` , GI50 read as > 100 µM (inactive)

Notebook: `CC(C)[Si](OC1=C(C(=O)N(C)c2ccccc2Cl)CCCC1)(C(C)C)C(C)C` , GI50 read as 12.8 µM (inactive)

Notebook: `O/N=N/c1cnccn1` , GI50 read as > 1250 µM (inactive)

----------
# Tested on: UO-31
# assay name: NCI tumour cell line growth inhibition, 48 h
The source made the active and inactive calls. No stated cut-off is given here; in the data, active = GI50 up to about 1.1 µM and inactive = higher.
A correct response names exactly one class from Yes (active), No (inactive)

[Q] Entry Cc1ccc(/C=C2\N=C(N3CCCC(CO)C3)NC2=O)cc1 (stereo not given) : call = ?
[A] No

----------
# System: MDA-MB-435
# assay name: NCI tumour cell line growth inhibition, 48 h
Active and inactive are the calls of the source. Rule as the data show it: active = GI50 up to about 1.1 µM and inactive = higher.
A correct response names exactly one class from active, inactive

Here's what some known entries look like.
>>> class_assignment("Oc1[nH]c(Nc2cccc(Cl)c2)nc2ncnc1-2")
"inactive"
>>> class_assignment("N=C(N)NS(=O)(=O)c1ccc(NNc2c3ccccc3nc3c(C(=O)Nc4ccc(S(N)(=O)=O)cc4)cccc23)cc1")
"inactive"
>>> class_assignment("O=C(O)Cc1cccc2c1OC(c1ccccc1)C(Cl)(C(=O)c1ccccc1)C2=O (stereo not given)")
"inactive"
>>> class_assignment("N#Cc1c(Nc2nc3ccccc3s2)c2ccccc2n2c1nc1ccccc12")
"inactive"
>>> class_assignment("COC(=O)/C=C\\c1ccc2c(c1)CC1(C2)Cc2ccc(/C=C/C(=O)OC)cc2C1 (stereo not given)")
"inactive"

[Q] Entry C/C1=C/C[C@@H](/C(C)=C/c2csc(C)n2)OC(=O)C[C@H](O)C(C)(C)C(=O)[C@H](C)[C@@H](O)[C@@H](C)CCC1 [EPOTHILONE D] : call = ?
[A] active

[Q] Entry COc1cc([C@@H]2c3cc4c(cc3C[C@@H]3COC(=O)C32)OCO4)cc(OC)c1O (stereo not given in full) : call = ?
[A] active

[Q] Entry `N=C(/C=C/c1ccc(-c2cn3cc(/C=C/C(=N)N4CCCC4)ccc3n2)cc1)N1CCCC1` : call = ?
[A] inactive

[Q] Entry `COc1cc(CNC(=O)CCCCCCCCCCSC#N)ccc1O` : call = ?
[A] inactive

[Q] Entry `O=C(O)c1cc(O)nc(S)n1` : call = ?
[A] inactive

[Q] Entry `C=Cc1nc(C#N)c(N)o1` : call = ?
[A] inactive

----------
# Test system: M14
# assay name: NCI tumour cell line growth inhibition, 48 h
The source made the active and inactive calls. No stated cut-off is given here; in the data, active = GI50 up to about 1.1 µM and inactive = higher.
A correct response names exactly one class from yes (1) (active), no (0) (inactive)

[Q] Entry `N=C(N)NS(=O)(=O)c1ccc(NC(=O)c2cccc3c(NNc4ccc(S(N)(=O)=O)cc4)c4ccccc4nc23)cc1` : call = ?
[A] no (0)

[Q] Entry `CC#Cc1cc2c(cc1O)CC[C@@H]1[C@@H]2CC[C@]2(C)[C@@H](O)CC[C@@H]12` : call = ?
[A] yes (1)

[Q] Entry `Nc1ccc(S(=O)(=O)C23CC4CC(CC(C4)C2)C3)cc1` : call = ?
[A] no (0)

----------
Measured GI50, listed per entry.
# System: UO-31
# assay name: NCI tumour cell line growth inhibition, 48 h
Calls of active or inactive are those of the source. No stated cut-off is given here; in the data, active = GI50 up to about 1.1 µM and inactive = higher.

Answered examples (3):
>>> observed_result("CCOc1ccc(C2=C(Cl)c3cc(OC)c(OC)cc3C2Cl)cc1 (stereo not given)")
"45 µM (inactive)"
>>> observed_result("CC1(C)OC(=O)C(C#N)=C1/C=C/c1coc2ccc(Cl)cc2c1=O")
"27.1 µM (inactive)"
>>> observed_result("COc1cc(OC)cc(Oc2nc3c(N)cc(C(F)(F)F)cc3nc2-c2ccccc2)c1")
"> 100 µM (inactive)"

Notebook: `Nc1n[n+](CC(=O)c2ccccc2)c2sc(-c3ccccc3)nn12` , GI50 read as 79.3 µM (inactive)

Notebook: `CC(C)(C)OC(=O)NCCc1ccc(N)cc1` , GI50 read as 4.2 µM (inactive)

Notebook: `CC#Cc1cc2c(cc1O)CC[C@@H]1[C@@H]2CC[C@]2(C)[C@@H](O)CC[C@@H]12` , GI50 read as 9.23 µM (inactive)

Notebook: `CC#N.O[C@@H]1CCCC[C@@H]1O.O[C@@H]1CCCC[C@@H]1O.[TeH2]` , GI50 read as 57.1 µM (inactive)

Notebook: C=C(C)C1CC2=C(C(=O)OC)C=C(O2)C(C(=C)C)[C@@H]2OC(=O)/C(=C\C1O)[C@H]2N(C)C (stereo not given in full) , GI50 read as 13.4 µM (inactive)

Notebook: `Cc1ccc(C)c(COCCOCn2c(=O)[nH]c(=O)c3cc(Br)ccc32)c1` , GI50 read as > 100 µM (inactive)

Notebook: COC1(Cc2ccccc2)C(=O)c2ccccc2N1C(C)=O (stereo not given) , GI50 read as > 100 µM (inactive)

----------
Measured GI50, listed per entry.
# System: BT-549
# assay name: NCI tumour cell line growth inhibition, 48 h
The source made the active and inactive calls. Rule as the data show it: active = GI50 up to about 1.1 µM and inactive = higher.

Answered examples (2):
>>> observed_result("Cc1ccc2c(c1)C=CC1(O2)N(c2ccccc2)C(=S)OC1(C)C (centres undefined)")
"> 100 µM (inactive)"
>>> observed_result("CO/N=C(\\C(=O)O/C(=N/C1CCCCC1)NC1CCCCC1)c1csc(NC(c2ccccc2)(c2ccccc2)c2ccccc2)n1")
"> 10 µM (inactive)"

Notebook: `CC(C)[N+]([O-])(CCCNc1c2ccccc2nc2cccc([N+](=O)[O-])c12)C(C)C` , GI50 read as < 0.0395 µM (active)

Notebook: CCN(CC)CCCC(C)Nc1c2ccc(Cl)cc2nc2ccc(OC)cc12 (centres undefined) , GI50 read as 2.47 µM (inactive)

Notebook: COC(=O)C1=C(OC(=O)/C(=C/c2ccccc2)c2ccc(Cl)cc2Cl)C(C(=O)OC)[C@@]2(O)[C@@H](C(=O)OC)[C@H](C)C[C@@H]1[C@@H]2C(=O)OC (some centres undefined) , GI50 read as > 100 µM (inactive)

Notebook: `O=C1/C(=C/c2ccc(Cl)cc2)Oc2ccccc21` , GI50 read as 25.6 µM (inactive)

Notebook: `CC(C)C(=O)CP(=O)(O)O` , GI50 read as > 100 µM (inactive)

Notebook: CSc1nc2c(c(=O)n1C)N=C(c1ccccc1)[C@H](C(CC(=O)c1ccccc1)c1ccccc1)C(c1ccccc1)N2 (some centres undefined) , GI50 read as > 100 µM (inactive)

Notebook: `CC(=O)OC(OC(C)=O)c1ccc2ccc3cccc4ccc1c2c34` , GI50 read as 25.1 µM (inactive)

// data source = ChEMBL document CHEMBL1201862
